- experimental system: human RXFP1 (Homo sapiens)
- Sequence (Q9HBX9 whole entry): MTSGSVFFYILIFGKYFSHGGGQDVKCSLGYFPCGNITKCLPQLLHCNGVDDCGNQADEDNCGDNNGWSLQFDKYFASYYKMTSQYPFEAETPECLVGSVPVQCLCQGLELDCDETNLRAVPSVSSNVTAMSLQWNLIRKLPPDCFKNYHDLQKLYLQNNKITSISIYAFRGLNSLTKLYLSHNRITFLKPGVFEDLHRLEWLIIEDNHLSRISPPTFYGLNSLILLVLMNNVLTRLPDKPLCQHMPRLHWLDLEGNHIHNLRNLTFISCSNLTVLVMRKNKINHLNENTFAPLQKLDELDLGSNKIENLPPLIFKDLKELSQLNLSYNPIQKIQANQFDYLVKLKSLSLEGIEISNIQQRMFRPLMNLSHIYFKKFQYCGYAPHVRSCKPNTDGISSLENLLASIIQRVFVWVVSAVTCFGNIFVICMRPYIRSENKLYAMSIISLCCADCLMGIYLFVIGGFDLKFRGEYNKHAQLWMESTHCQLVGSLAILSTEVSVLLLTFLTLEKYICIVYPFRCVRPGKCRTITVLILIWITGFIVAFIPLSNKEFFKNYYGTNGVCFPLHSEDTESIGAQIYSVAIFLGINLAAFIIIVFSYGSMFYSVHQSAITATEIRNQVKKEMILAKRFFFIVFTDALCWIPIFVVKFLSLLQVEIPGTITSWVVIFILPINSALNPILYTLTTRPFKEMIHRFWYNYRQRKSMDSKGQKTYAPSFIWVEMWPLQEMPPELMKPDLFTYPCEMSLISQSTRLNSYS
- experimental protocol: hRXFP1 HEK293 cAMP assay (HTRF)
- test parameters: HEK293 cells stably expressing human RXFP1, 30 min at room temperature
pEC50: −log10 of the molar value.
Rule: pEC50 of 7 or more gives condition met; anything lower gives condition not met.

Examples from the recorded data:
# molecule, experimental system, class name
rows = [
    ("COc1ccc(C2CC(C(=O)N3CCC(O)CC3)C2)cc1C(=O)N[C@H]1[C@@H](C(=O)Nc2ccc(F)c(C(F)(F)F)c2)[C@H]2CC[C@@H]1/C2=C\\C1CC1 (some centres unmarked)", "human RXFP1 (Homo sapiens)", "condition met"),
    ("COc1ccc(/C=C/CCO)cc1C(=O)N[C@@H]1C2CCC(C2=C(C)C)[C@@H]1C(=O)Nc1ccc(F)c(C(F)(F)F)c1 (some centres unmarked)", "human RXFP1 (Homo sapiens)", "condition not met"),
    ("COc1ccc(C(=O)NC(C)(C)CO)cc1C(=O)N[C@H]1[C@@H](C(=O)Nc2ccc(F)c(C(F)(F)F)c2)[C@H]2CC[C@@H]1/C2=C\\C1CC1", "human RXFP1 (Homo sapiens)", "condition met"),
    ("COc1ccc(CCCCCOC(=O)NC2CCC2)cc1C(=O)N[C@@H]1C2CCC(/C2=C/C(F)(F)F)[C@@H]1C(=O)Nc1ccc(F)c(C(F)(F)F)c1 (some centres unmarked)", "human RXFP1 (Homo sapiens)", "condition not met"),
    ("COc1ccc(C23CCC2CC(CO)C3)cc1C(=O)N[C@H]1[C@@H](C(=O)Nc2ccc(F)c(C(F)(F)F)c2)[C@H]2CC[C@@H]1/C2=C\\C1CC1 (some centres unmarked)", "human RXFP1 (Homo sapiens)", "condition not met"),
]

Does the reported pEC50 for COc1ccc(C2CC2C(=O)O)cc1C(=O)N[C@@H]1C2CCC(/C2=C/C(F)(F)F)[C@@H]1C(=O)Nc1ccc(F)c(C(F)(F)F)c1 (single isomer, unassigned) [Example 62] fall at or above the 7 mark?
condition not met

Check this molecule for pEC50 at or above 7: CCOC(=O)/C(C)=C/c1ccc(OC)c(C(=O)N[C@H]2[C@@H](C(=O)Nc3ccc(F)c(C(F)(F)F)c3)[C@H]3CC[C@@H]2/C3=C\C(F)(F)F)c1 [Example 318]
condition not met

Evaluate COc1ccc(CCCO)cc1C(=O)NC1C2CCC(/C2=C/C2CC(F)(F)C2)[C@@H]1C(=O)Nc1ccc(F)c(C(F)(F)F)c1 (some centres unmarked) : pEC50 at minimum 7?
condition met

Please indicate if the recorded pEC50 for COc1ccc(C(C)(C)CCO)cc1C(=O)N[C@H]1[C@@H](C(=O)Nc2ccc(F)c(C(F)(F)F)c2)[C@H]2CC[C@@H]1/C2=C\C1CC1 meets or exceeds 7.
condition not met

State whether the measured pEC50 reaches 7, counting equality as reaching it, for COc1cc2c(cc1C(=O)N[C@H]1[C@@H](C(=O)Nc3ccc(F)c(C(F)(F)F)c3)[C@H]3CC[C@@H]1/C3=C\C(F)(F)F)CCC2
condition not met

Hi team, for COc1c(F)cc(C(=O)NCC2(S(C)(=O)=O)CC2)cc1C(=O)N[C@H]1[C@@H](C(=O)Nc2ccc(F)c(C(F)(F)F)c2)[C@H]2CC[C@@H]1/C2=C\C1CC1 , is the recorded pEC50 at or above 7?
condition met

# bool: pEC50 of COc1ccc(C2CCC(O)CC2)cc1C(=O)NC1C2CCC(/C2=C/C(F)(F)F)[C@@H]1C(=O)Nc1ccc(F)c(C(F)(F)F)c1 (single isomer, unassigned) [Example 52] >= 7
condition not met

pEC50 >= 7 for COc1ccc(C(=O)N2CC[C@@H](O)C2)cc1C(=O)N[C@H]1[C@@H](C(=O)Nc2ccc(F)c(C(F)(F)F)c2)[C@H]2CC[C@@H]1/C2=C\C1CC1 ?
condition met

In plain terms: is recorded pEC50 at least 7 for COc1ccc(/C=C/C(=O)N[C@H]2C[C@H](O)C2)cc1C(=O)NC1C2CCC(/C2=C/C(F)(F)F)[C@@H]1C(=O)Nc1ccc(F)c(C(F)(F)F)c1 (some centres unmarked) ?
condition not met

Reported pEC50 at or above 7? COc1ccc(C(=O)N2CCC3(CC2)COC3)cc1C(=O)N[C@H]1[C@@H](C(=O)Nc2ccc(F)c(C(F)(F)F)c2)[C@H]2CC[C@@H]1/C2=C\C1CC1
condition met

State whether the measured pEC50 reaches 7, counting equality as reaching it, for COc1ccc(CCC(C)(C)O)cc1C(=O)NC1C2CCC(/C2=C/C2CCCOC2)[C@@H]1C(=O)Nc1ccc(F)c(C(F)(F)F)c1 (single isomer, unassigned) [Example 173]
condition not met

Textbook exercise: given the entry COc1ccc(/C=C/C(=O)N2CCOCC2)cc1C(=O)N[C@H]1[C@@H](C(=O)Nc2ccc(F)c(C(F)(F)F)c2)[C@H]2CC[C@@H]1/C2=C\C1CC1 , state whether its pEC50 is greater than or equal to 7.
condition met
